Entry source: paper PMC8161391

- Measurement target: human adenosine A2A receptor (Homo sapiens, UniProt P29274)
- Construct: host or cells: CHO or HEK cells (membrane preparations)
- Sequence (P29274 whole entry): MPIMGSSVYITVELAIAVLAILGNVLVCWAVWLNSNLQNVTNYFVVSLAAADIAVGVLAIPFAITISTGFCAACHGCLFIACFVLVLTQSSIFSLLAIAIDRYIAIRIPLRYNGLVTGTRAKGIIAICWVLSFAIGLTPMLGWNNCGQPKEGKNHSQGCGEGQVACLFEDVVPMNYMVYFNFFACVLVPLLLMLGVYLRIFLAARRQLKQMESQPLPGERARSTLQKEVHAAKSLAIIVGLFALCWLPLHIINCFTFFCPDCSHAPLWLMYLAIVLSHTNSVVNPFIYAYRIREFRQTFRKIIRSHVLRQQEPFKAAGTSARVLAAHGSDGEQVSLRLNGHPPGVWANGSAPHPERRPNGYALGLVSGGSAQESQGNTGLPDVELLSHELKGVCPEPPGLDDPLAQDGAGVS
- Experiment description: Competition binding assay, A2A receptor, radioligand [3H]MSX-2
- Assay setup: human receptor, vs [3H]MSX-2, mean ± SEM of three experiments
Entries and their Ki
Measurement type: Ki (nM)

CCCn1c(=O)[nH]c2nc(-c3ccc(S(=O)(=O)Nc4ccnc(F)c4)cc3)[nH]c2c1=O = 375
CCCn1c(=O)[nH]c2nc(-c3ccc(S(=O)(=O)N4CCC(F)CC4)cc3)[nH]c2c1=O = 158

###

Entries and their Selectivity Ratio Ki(Ax)/Ki(A2B) A3/A2B
- Measurement target: human adenosine A3 receptor (Homo sapiens)
- Construct: host or cells: CHO or HEK cells (membrane preparations)
- Sequence (P0DMS8 whole entry): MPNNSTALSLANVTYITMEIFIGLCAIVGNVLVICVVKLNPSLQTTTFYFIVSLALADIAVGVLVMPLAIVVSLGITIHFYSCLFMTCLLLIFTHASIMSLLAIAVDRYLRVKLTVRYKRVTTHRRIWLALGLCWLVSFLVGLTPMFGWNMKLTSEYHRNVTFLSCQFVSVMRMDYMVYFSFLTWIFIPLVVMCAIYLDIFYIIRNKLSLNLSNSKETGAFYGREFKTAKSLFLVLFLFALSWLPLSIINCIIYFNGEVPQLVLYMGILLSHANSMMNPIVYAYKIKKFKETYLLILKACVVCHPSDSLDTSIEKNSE
- Experiment description: Competition binding assay, A3 receptor, radioligand [3H]PSB-11
- Assay setup: human receptors
Measurement type: Selectivity Ratio Ki(Ax)/Ki(A2B) A3/A2B

CCCn1c(=O)[nH]c2nc(-c3ccc(S(=O)(=O)N4CCCCC4)cc3)[nH]c2c1=O = 7
CCCn1c(=O)[nH]c2nc(-c3ccc(S(=O)(=O)N4CCN(c5ccc(Cl)cc5)CC4)cc3)[nH]c2c1=O = >18,000
CCCn1c(=O)[nH]c2nc(-c3ccc(S(=O)(=O)Nc4ccccc4)cc3)[nH]c2c1=O = >32
CCCn1c(=O)[nH]c2nc(-c3ccc(S(=O)(=O)N4CCC(F)CC4)cc3)[nH]c2c1=O = >81

###

- Measurement target: human adenosine A1 receptor (Homo sapiens, UniProt P30542)
- Construct: host or cells: CHO or HEK cells (membrane preparations)
- Sequence (P30542 whole entry): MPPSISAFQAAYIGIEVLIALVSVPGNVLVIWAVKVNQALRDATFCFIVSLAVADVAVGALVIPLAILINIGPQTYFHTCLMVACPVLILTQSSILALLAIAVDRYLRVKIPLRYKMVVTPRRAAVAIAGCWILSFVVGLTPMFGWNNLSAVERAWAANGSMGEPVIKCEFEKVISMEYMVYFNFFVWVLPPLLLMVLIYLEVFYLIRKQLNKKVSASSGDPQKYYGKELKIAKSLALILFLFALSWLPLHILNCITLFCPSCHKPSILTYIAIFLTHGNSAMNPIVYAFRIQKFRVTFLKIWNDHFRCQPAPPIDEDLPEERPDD
- Experiment description: Competition binding assay, A1 receptor, radioligand [3H]CCPA
- Assay setup: human receptor, vs [3H]CCPA, mean ± SEM of three experiments
pKi: −log10 of the molar value.
Measurement type: pKi

CCCn1c(=O)[nH]c2nc(-c3ccc(S(=O)(=O)Nc4ccnc(F)c4)cc3)[nH]c2c1=O [Compound 5] = 6.59
